Each recorded value in this set is attributed to the supplement of paper PMC7877785.

Can you tell me self-splicing fitness (ln) for the items I'm about to list?
- method.description: self-splicing fitness, log relative to wild type (ln ratio); higher = more splicing; Tetrahymena group I intron in knt gene, E. coli kanamycin selection, DiMSum; sequences stand for … in CUCUCU…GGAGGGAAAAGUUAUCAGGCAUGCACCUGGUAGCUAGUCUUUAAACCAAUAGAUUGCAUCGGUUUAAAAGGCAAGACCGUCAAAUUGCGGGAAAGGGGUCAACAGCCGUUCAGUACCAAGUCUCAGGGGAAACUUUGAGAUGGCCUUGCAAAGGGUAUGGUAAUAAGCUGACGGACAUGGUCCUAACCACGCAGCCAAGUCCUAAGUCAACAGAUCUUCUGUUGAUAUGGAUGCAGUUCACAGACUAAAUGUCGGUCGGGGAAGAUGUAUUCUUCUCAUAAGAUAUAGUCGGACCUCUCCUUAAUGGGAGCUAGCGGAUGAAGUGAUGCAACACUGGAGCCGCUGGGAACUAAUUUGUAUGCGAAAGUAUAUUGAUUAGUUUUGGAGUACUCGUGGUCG;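 further: selection with 25 µg/mL kanamycin versus none on LB agar overnight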
- assay.conditions: 37 °C
Output spec: single numeric token, no unit.

(Q) Note self-splicing fitness (ln) for the sequence shown: GGCCAGCAAUAUUACGCGCC
(A) -2.05

(Q) Note self-splicing fitness (ln) for the sequence shown: GAGUAGCAAUAUUACGCGCU
(A) -0.5

(Q) Note self-splicing fitness (ln) for the sequence shown: UACCAGCAAUAUUACGUAUA
(A) -0.199

(Q) Note self-splicing fitness (ln) for the sequence shown: AGCUAGCAAUAUUACGCUAU
(A) -1.42

(Q) Note self-splicing fitness (ln) for the sequence shown: GUGGAGCAAUAUUACGGUAC
(A) -1.71

(Q) Note self-splicing fitness (ln) for the sequence shown: UCCGAGCAAUAUUACGGUCU
(A) -1.58

(Q) Note self-splicing fitness (ln) for the sequence shown: CCAGAGCAAUAUUACGUUUU
(A) -2.62

(Q) Note self-splicing fitness (ln) for the sequence shown: UAAAAGCAAUAUUACGGACA
(A) 0.302

(Q) Note self-splicing fitness (ln) for the sequence shown: CAUUAGCAAUAUUACGCAGG
(A) -1.53

(Q) Note self-splicing fitness (ln) for the sequence shown: CAUUAGCAAUAUUACGUGAG
(A) 0.776

(Q) Note self-splicing fitness (ln) for the sequence shown: UUAUAGCAAUAUUACGCCUU
(A) -0.144

(Q) Note self-splicing fitness (ln) for the sequence shown: UUAUAGCAAUAUUACGCGGC
(A) -2.4

(Q) Note self-splicing fitness (ln) for the sequence shown: CUAAAGCAAUAUUACGCGAA
(A) -2.63

(Q) Note self-splicing fitness (ln) for the sequence shown: GUUAAGCAAUAUUACGCGAA
(A) 0.0507

(Q) Note self-splicing fitness (ln) for the sequence shown: AAUUAGCAAUAUUACGAGAC
(A) -2.39

(Q) Note self-splicing fitness (ln) for the sequence shown: UUUGAGCAAUAUUACGCACG
(A) -1.45

(Q) Note self-splicing fitness (ln) for the sequence shown: GCCUAGCAAUAUUACGCAGC
(A) -1.52

(Q) Note self-splicing fitness (ln) for the sequence shown: GUGCAGCAAUAUUACGGAUC
(A) 0.198

(Q) Note self-splicing fitness (ln) for the sequence shown: UGCAAGCAAUAUUACGGGUG
(A) -0.33

(Q) Note self-splicing fitness (ln) for the sequence shown: CAUAAGCAAUAUUACGCUAU
(A) -2.99

(Q) Note self-splicing fitness (ln) for the sequence shown: UACAAGCAAUAUUACGCAGU
(A) -3.27

(Q) Note self-splicing fitness (ln) for the sequence shown: UGAAAGCAAUAUUACGGUCG
(A) 0.137

(Q) Note self-splicing fitness (ln) for the sequence shown: UAACAGCAAUAUUACGGGUU
(A) -3.58

(Q) Note self-splicing fitness (ln) for the sequence shown: AGGUAGCAAUAUUACGCAAU
(A) -1.03

(Q) Note self-splicing fitness (ln) for the sequence shown: GCCUAGCAAUAUUACGCGAA
(A) -1.64

(Q) Note self-splicing fitness (ln) for the sequence shown: GGCCAGCAAUAUUACGCCAU
(A) -2.12

(Q) Note self-splicing fitness (ln) for the sequence shown: AGGGAGCAAUAUUACGACAA
(A) -3.44

(Q) Note self-splicing fitness (ln) for the sequence shown: CAUAAGCAAUAUUACGUACA
(A) -2.37

(Q) Note self-splicing fitness (ln) for the sequence shown: UUAGAGCAAUAUUACGUCUC
(A) -2.82

(Q) Note self-splicing fitness (ln) for the sequence shown: GCCAAGCAAUAUUACGAAGG
(A) -2.15

(Q) Note self-splicing fitness (ln) for the sequence shown: UGUGAGCAAUAUUACGGACG
(A) -0.0879

(Q) Note self-splicing fitness (ln) for the sequence shown: ACGCAGCAAUAUUACGGUUU
(A) -0.076

(Q) Note self-splicing fitness (ln) for the sequence shown: CCCAAGCAAUAUUACGAUGG
(A) -1.99

(Q) Note self-splicing fitness (ln) for the sequence shown: GUAAAGCAAUAUUACGAAGC
(A) -1.83

(Q) Note self-splicing fitness (ln) for the sequence shown: AAGCAGCAAUAUUACGCCAU
(A) -1.69

(Q) Note self-splicing fitness (ln) for the sequence shown: UGCCAGCAAUAUUACGCCGU
(A) -2.32

(Q) Note self-splicing fitness (ln) for the sequence shown: GUCGAGCAAUAUUACGCUGA
(A) -2.01

(Q) Note self-splicing fitness (ln) for the sequence shown: GAAGAGCAAUAUUACGUUUC
(A) -2.74

(Q) Note self-splicing fitness (ln) for the sequence shown: GCUGAGCAAUAUUACGUGAA
(A) -1.35

(Q) Note self-splicing fitness (ln) for the sequence shown: UAACAGCAAUAUUACGAAGA
(A) -1.33

(Q) Note self-splicing fitness (ln) for the sequence shown: GUGUAGCAAUAUUACGGCUU
(A) 0.195

###

- method.description: self-splicing fitness, log relative to wild type (ln ratio); higher = more splicing; Tetrahymena group I intron in knt gene, E. coli kanamycin selection, DiMSum; sequences stand for … in CUCUCU…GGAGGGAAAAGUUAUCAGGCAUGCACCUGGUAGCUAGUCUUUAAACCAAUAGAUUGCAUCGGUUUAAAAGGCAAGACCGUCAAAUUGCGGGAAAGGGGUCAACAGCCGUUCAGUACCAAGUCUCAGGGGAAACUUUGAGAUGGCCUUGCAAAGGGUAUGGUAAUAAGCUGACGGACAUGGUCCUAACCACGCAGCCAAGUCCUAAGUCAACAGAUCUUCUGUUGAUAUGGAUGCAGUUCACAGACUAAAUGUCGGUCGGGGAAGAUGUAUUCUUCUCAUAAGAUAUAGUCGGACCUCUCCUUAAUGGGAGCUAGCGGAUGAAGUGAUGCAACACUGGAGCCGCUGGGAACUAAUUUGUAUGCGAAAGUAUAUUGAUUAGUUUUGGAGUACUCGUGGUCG
- assay.conditions: 37 °C
Can you tell me self-splicing fitness (ln) for the items I'm about to list?
Output spec: single numeric token, no unit.

(Q) Note self-splicing fitness (ln) for the sequence shown: GCAAAGCAAUAUUACGCGUC
(A) -1.94

(Q) Note self-splicing fitness (ln) for the sequence shown: AAAUAGCAAUAUUACGAUCC
(A) -0.695

(Q) Note self-splicing fitness (ln) for the sequence shown: AGACAGCAAUAUUACGUCAC
(A) -3.41

(Q) Note self-splicing fitness (ln) for the sequence shown: CGCAAGCAAUAUUACGUAUG
(A) -0.723

(Q) Note self-splicing fitness (ln) for the sequence shown: GGGGAGCAAUAUUACGUAUG
(A) -1.58

(Q) Note self-splicing fitness (ln) for the sequence shown: UCAGAGCAAUAUUACGGGCU
(A) -2.46

(Q) Note self-splicing fitness (ln) for the sequence shown: GGUAAGCAAUAUUACGAGAG
(A) -3.25

(Q) Note self-splicing fitness (ln) for the sequence shown: ACUAAGCAAUAUUACGUCGU
(A) -1.16

(Q) Note self-splicing fitness (ln) for the sequence shown: UGAAAGCAAUAUUACGAUUC
(A) -2

(Q) Note self-splicing fitness (ln) for the sequence shown: UACGAGCAAUAUUACGAUAG
(A) -2.31

(Q) Note self-splicing fitness (ln) for the sequence shown: GGUCAGCAAUAUUACGACAG
(A) 0.151

(Q) Note self-splicing fitness (ln) for the sequence shown: CUUAAGCAAUAUUACGGCGU
(A) -1.89

###

Can you tell me self-splicing fitness (ln) for the items I'm about to list?
- method.description: self-splicing fitness, log relative to wild type (ln ratio); higher = more splicing; Tetrahymena group I intron in knt gene, E. coli kanamycin selection, DiMSum; sequences stand for … in CUCUCU…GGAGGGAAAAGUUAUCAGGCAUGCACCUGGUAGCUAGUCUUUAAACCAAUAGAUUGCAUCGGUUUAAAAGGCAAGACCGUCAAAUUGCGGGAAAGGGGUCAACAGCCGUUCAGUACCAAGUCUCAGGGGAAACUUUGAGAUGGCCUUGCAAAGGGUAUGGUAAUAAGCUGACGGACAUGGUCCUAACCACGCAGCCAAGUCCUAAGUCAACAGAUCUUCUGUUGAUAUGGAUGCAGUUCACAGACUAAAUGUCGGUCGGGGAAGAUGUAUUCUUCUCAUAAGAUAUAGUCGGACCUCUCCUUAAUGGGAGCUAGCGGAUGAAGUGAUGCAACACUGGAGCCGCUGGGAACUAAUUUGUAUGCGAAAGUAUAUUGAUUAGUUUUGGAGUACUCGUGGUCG
- assay.conditions: 30 °C
Output spec: single numeric token, no unit.

(Q) Note self-splicing fitness (ln) for the sequence shown: AUUCAGCAAUAUUACGUCAU
(A) -0.863

(Q) Note self-splicing fitness (ln) for the sequence shown: UUACAGCAAUAUUACGCUAG
(A) -0.779

(Q) Note self-splicing fitness (ln) for the sequence shown: AGCUAGCAAUAUUACGGAUC
(A) -1.26

(Q) Note self-splicing fitness (ln) for the sequence shown: GCUCAGCAAUAUUACGCUAG
(A) -1.03

(Q) Note self-splicing fitness (ln) for the sequence shown: GCUCAGCAAUAUUACGGGCC
(A) -2.8

(Q) Note self-splicing fitness (ln) for the sequence shown: GGAAAGCAAUAUUACGCAUG
(A) -1.24

(Q) Note self-splicing fitness (ln) for the sequence shown: ACCGAGCAAUAUUACGUCGC
(A) -3.69

(Q) Note self-splicing fitness (ln) for the sequence shown: GACAAGCAAUAUUACGGAAA
(A) -2.13

(Q) Note self-splicing fitness (ln) for the sequence shown: UGAAAGCAAUAUUACGUCUU
(A) -1.69

(Q) Note self-splicing fitness (ln) for the sequence shown: UCCUAGCAAUAUUACGCGGG
(A) -3.2

(Q) Note self-splicing fitness (ln) for the sequence shown: CCGGAGCAAUAUUACGGAUG
(A) -2.78

(Q) Note self-splicing fitness (ln) for the sequence shown: CACUAGCAAUAUUACGGCCU
(A) -2.77

(Q) Note self-splicing fitness (ln) for the sequence shown: ACGCAGCAAUAUUACGUGGC
(A) -2.88

(Q) Note self-splicing fitness (ln) for the sequence shown: UUGUAGCAAUAUUACGCAGG
(A) -1.6

(Q) Note self-splicing fitness (ln) for the sequence shown: CAUCAGCAAUAUUACGCUGG
(A) -3.62

(Q) Note self-splicing fitness (ln) for the sequence shown: ACUGAGCAAUAUUACGACCU
(A) -1.57

(Q) Note self-splicing fitness (ln) for the sequence shown: GGCAAGCAAUAUUACGCGAG
(A) -2.32

(Q) Note self-splicing fitness (ln) for the sequence shown: UAUUAGCAAUAUUACGCAAU
(A) -2.79

(Q) Note self-splicing fitness (ln) for the sequence shown: GAAGAGCAAUAUUACGCCAC
(A) -3.28

(Q) Note self-splicing fitness (ln) for the sequence shown: GUUAAGCAAUAUUACGUUCC
(A) -2.16

(Q) Note self-splicing fitness (ln) for the sequence shown: GCCGAGCAAUAUUACGUUCC
(A) -1.3
